tgt: hGLP-1R (Homo sapiens, UniProt P43220)
Construct: expressed in transfected cells
Sequence (P43220 24-463): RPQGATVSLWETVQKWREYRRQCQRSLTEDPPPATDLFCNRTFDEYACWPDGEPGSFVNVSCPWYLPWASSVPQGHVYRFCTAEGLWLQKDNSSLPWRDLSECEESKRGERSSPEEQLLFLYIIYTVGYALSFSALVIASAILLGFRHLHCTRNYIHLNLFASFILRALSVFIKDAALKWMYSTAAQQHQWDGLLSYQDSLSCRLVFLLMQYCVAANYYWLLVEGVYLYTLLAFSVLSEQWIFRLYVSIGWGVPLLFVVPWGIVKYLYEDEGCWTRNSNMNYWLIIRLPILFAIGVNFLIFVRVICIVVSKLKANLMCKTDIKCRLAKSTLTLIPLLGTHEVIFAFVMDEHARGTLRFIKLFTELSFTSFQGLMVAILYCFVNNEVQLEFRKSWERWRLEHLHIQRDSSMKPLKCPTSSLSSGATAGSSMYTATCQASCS
measurement.notes: Radioligand competition binding, FlpInCHO-hGLP-1R cells
pIC50: −log10 of the molar value. Ends that are not written are not given here.
Recorded pIC50 values for a group of sequences are listed next.

chain | pIC50
HFDGVYTDYFSRYLEEKATNEFIDWLLKGQE [eGLP-1] | 7.60
HSEGTFTNDVTRLLEEKATSEFIAWLLKGLE [pGLP-1] | 7.90
